The reported measurements were obtained from patent US20240391871A1.

# Tested on: L6-myotubes
# Assay details: Glucose uptake (3H-2-deoxyglucose) in differentiated L6-myotubes
# Format: cell-based
# Setup conditions: compound 1×10^−5 M, read-out: Biological example 1: glucose uptake, activity compared to that of isoproterenol
Counter-ions that a name gives are not always drawn.
Observation type: Emax at 10 µM

[[record]]
molecule = "O[C@@H](c1cccc(F)c1)[C@H]1CC[C@@H](Cc2ccc(Cl)cc2)N1 [Example 26, hydrochloride]"
reported_value = "50 to 75%"

[[record]]
molecule = "CS(=O)(=O)N(Cc1ccccc1)[C@H]1CC[C@H](C[C@@H]2CC[C@H]([C@@H](O)c3cccc(F)c3)N2)CC1 [Example 47, hydrochloride]"
reported_value = "< 25%"

[[record]]
molecule = "COc1ccc(C[C@H]2CC[C@H]([C@H](O)c3cncc(F)c3)N2)cc1 [Example 23, dihydrochloride]"
reported_value = "> 75%"

[[record]]
molecule = "COc1ccc(C[C@@]2(C)CC[C@H]([C@H](O)c3cccc(F)c3)N2)cc1 [Example 19, hydrochloride]"
reported_value = "> 75%"

[[record]]
molecule = "CC(=O)N(Cc1ccccc1)[C@H]1CC[C@@H](C[C@@H]2CC[C@H]([C@H](O)c3cccc(F)c3)N2)CC1 [Example 33, hydrochloride]"
reported_value = "50 to 75%"

[[record]]
molecule = "O[C@@H](c1cccc(F)c1)[C@H]1CC[C@H](Cc2ccc(Cl)cc2)N1 [Example 28, hydrochloride]"
reported_value = "50 to 75%"

[[record]]
molecule = "CO[C@H]1CC[C@H](C[C@@H]2CC[C@H]([C@H](O)c3cncc(F)c3)N2)CC1 [Example 9, dihydrochloride]"
reported_value = "25 to 50%"

[[record]]
molecule = "CO[C@H]1CC[C@H](C[C@@H]2CC[C@H]([C@@H](O)c3cncc(F)c3)N2)CC1 [Example 10, dihydrochloride]"
reported_value = "25 to 50%"

[[record]]
molecule = "CC(=O)N[C@H]1CC[C@@H](C[C@@H]2CC[C@H]([C@@H](O)c3cccc(F)c3)N2)CC1"
reported_value = "50 to 75%"

